# Tested on: pERK, HCT116 cells
# assayName: Phospho-ERK inhibition, AlphaLISA p-ERK 1/2, HCT-116
# Format: cell-based, human
# measurementConditions: Homo sapiens, HCT-116; Table 3; HCT116 cells (KRAS G13D), 1 h treatment
pIC50: −log10 of the molar value.
assayEndpoint: pIC50

Here are 3 compounds together with their reported answers.
>  <compound>
O=S(=O)(Nc1ccc(F)c(Nc2ncnc3sc(-n4cnc5c(F)cc(OCCO)cc54)nc23)c1F)c1cccc(Cl)c1Cl [Example 100]

>  <experimentalResult>
> 6.30

$$$$
>  <compound>
O=S(=O)(Nc1ccc(F)c(Nc2ncnc3sc(-n4cnc5c(F)c(OCCO)ccc54)nc23)c1F)c1cccc(Cl)c1Cl [Example 80]

>  <experimentalResult>
5.00 to 6.00

$$$$
>  <compound>
O=C(c1cn(-c2nc3c(Nc4c(F)ccc(NS(=O)(=O)c5cccc(Cl)c5Cl)c4F)ncnc3s2)c2ccccc12)N1C2CCC1CN(CCO)C2 [Example 98]

>  <experimentalResult>
> 6.30

$$$$

Q: Tell me its pIC50 given COc1cccc2c1ncn2-c1nc2c(Nc3c(F)ccc(NS(=O)(=O)c4cccc(Cl)c4Cl)c3F)ncnc2s1 [Example 99] as the entry.
Result: > 6.30

Q: Answer with the recorded pIC50 for the compound listed here: N#Cc1cccc2c1ncn2-c1nc2c(Nc3c(F)ccc(NS(=O)(=O)c4cccc(Cl)c4Cl)c3F)ncnc2s1 [Example 120]
Result: > 6.30

Q: Quote pIC50 reported for Cc1c(F)cccc1S(=O)(=O)Nc1ccc(F)c(Nc2ncnc3sc(-n4cnc5c(-c6cccnc6)cccc54)nc23)c1F [Example 8] please.
Result: 6.00 to 6.30

Q: Query pIC50 for O=S(=O)(Nc1ccc(F)c(Nc2ncnc3sc(-n4cnc5cc(Cl)c(Cl)cc54)nc23)c1F)c1cccc(Cl)c1Cl [Example 47]
Result: 5.00 to 6.00
